Data origin: PubChem BioAssay AID2060346

Test system: CN0375-F725-PDC multi-cell spheroids, viability;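 also: spheroids exposed to drugs for seven days; 100% = DMSO vehicle control wells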
Assay: Anticancer human tumor CN0375-F725-PDC patient-derived colon carcinoma cell line growth inhibition [TAK]
Settings: second compound 30 µM; first compound 0.0316 µM; stronger effect = lower value
Let's look at some molecules and their measured viability, T/C.

| molecule | unit symbol | viability, T/C |
| --- | --- | --- |
| CC(C)CC(NC(=O)CNC(=O)c1cc(Cl)ccc1Cl)B1OC(=O)CC(CC(=O)O)(C(=O)O)O1 (stereo unspecified) + CC(C)NCC(C(=O)N1CCN(c2ncnc3c2C(C)CC3O)CC1)c1ccc(Cl)cc1 | % | 22.2 |
| COc1c(OCCCN2CCOCC2)ccc2c3n(c(=NC(=O)c4cnc(N)nc4)nc12)CCN3 + CC(C)NCC(C(=O)N1CCN(c2ncnc3c2C(C)CC3O)CC1)c1ccc(Cl)cc1 | % | 62 |
| CC(C)(C)c1nc(-c2cccc(NS(=O)(=O)c3c(F)cccc3F)c2F)c(-c2ccnc(N)n2)s1 + CC(C)NCC(C(=O)N1CCN(c2ncnc3c2C(C)CC3O)CC1)c1ccc(Cl)cc1 | % | 94.3 |
| CC(C)n1nc(-c2ccc3oc(N)nc3c2)c2c(N)ncnc21 + CC(C)NCC(C(=O)N1CCN(c2ncnc3c2C(C)CC3O)CC1)c1ccc(Cl)cc1 | % | 44.4 |
| COC1CC2CCC(C)C(O)(O2)C(=O)C(=O)N2CCCCC2C(=O)OC(C(C)CC2CCC(OCCO)C(OC)C2)CC(=O)C(C)C=C(C)C(O)C(OC)C(=O)C(C)CC(C)C=CC=CC=C1C (stereo unspecified) + CC(C)NCC(C(=O)N1CCN(c2ncnc3c2C(C)CC3O)CC1)c1ccc(Cl)cc1 | % | 75.8 |
| Cc1nc(NC(=O)N2CCCC2C(N)=O)sc1-c1ccnc(C(C)(C)C(F)(F)F)c1 (stereo unspecified) + CC(C)NCC(C(=O)N1CCN(c2ncnc3c2C(C)CC3O)CC1)c1ccc(Cl)cc1 | % | 80 |
